B1: glmS ribozyme (parent)
chain: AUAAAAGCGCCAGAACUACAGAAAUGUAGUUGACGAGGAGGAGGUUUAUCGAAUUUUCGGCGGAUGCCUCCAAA

Variants of: B1
Procedure details: self-cleavage kobs at 640 uM GlcN6P; higher = faster cleavage; RNA array
Condition summary: with glucosamine-6-phosphate
Fewer inactive variants are shown than the library holds.
Please use 1 whenever self-cleavage kobs at 640 uM GlcN6P is not below 0.0002 s⁻¹, and -1 whenever it is.

Example cases with answers are listed next.
A52C A53U U55A U65A | -1
G44U C61G | -1
U46G A53U | 1
G37C U57A A64C C71A | -1

# input Could you please find out whether A14G C16A G40A has self-cleavage kobs at 640 uM GlcN6P that meets 0.0002 s⁻¹ or exceeds it?
# output -1

Cited source: the supplement of paper PMC7125110
